# growth inhibition listing for each entry below
Experiment: NCI Yeast Anticancer Drug Screen. Data for the sgs1 mgt1 strain (AID 161);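 further: 0% = growth of cultures given vehicle only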
Settings: S. cerevisiae sgs1 mgt1 strain, at 50.0 µM, stronger effect = higher value
This is part of a sample that, as a whole, favours compounds with a hit. Of some 79,000 tested, about 15% had one in any assay.
MEASURED_ATTRIBUTE: growth inhibition (%)

COMPOUND: Cc1cc(Cl)ccc1OCCCC(=O)O
NUMERIC_READOUT: 41.5
--
COMPOUND: CC(C)(C)C1=CC(=C(P(=O)(O)O)P(=O)(O)O)C=C(C(C)(C)C)C1=O
NUMERIC_READOUT: -49.5
--
COMPOUND: NC1=NC(=O)N2CC12 (configuration not stated)
NUMERIC_READOUT: 8.2
--
COMPOUND: NC(=O)c1cc([N+](=O)[O-])cc([N+](=O)[O-])c1
NUMERIC_READOUT: 9.1
--
COMPOUND: CCCCC1CN1C(=N)OCC (configuration not stated)
NUMERIC_READOUT: 15.4
--
COMPOUND: C[N+](C)(C)Cc1cccc([N+](=O)[O-])c1
NUMERIC_READOUT: -3.8
--
COMPOUND: [C-]#[O+].[C-]#[O+].[C-]#[O+].[C-]#[O+].[C-]#[O+].[C-]#[O+].[C-]#[O+].[C-]#[O+].[C-]#[O+].[C-]#[O+].[Mn].[Mn]
NUMERIC_READOUT: -15.2
--
COMPOUND: COc1ccc2c3c1OC1C4(OC)CCC5(c6c(O)ccc(O)c64)C(C2)N(C)CCC315 (configuration not stated)
NUMERIC_READOUT: 7.2
--
COMPOUND: COc1cc(/C=C(/C)[N+](=O)[O-])ccc1O
NUMERIC_READOUT: 99.5
--
COMPOUND: Sc1nc2ccccc2s1.Sc1nc2ccccc2s1.Sc1nc2ccccc2s1.Sc1nc2ccccc2s1.[Cl][Rh][Cl]
NUMERIC_READOUT: 93.3
--
COMPOUND: O=C1NC(=S)NC(=O)C1=CC1CC1
NUMERIC_READOUT: 17.4
--
COMPOUND: CC(C)SP(=S)(SC(C)C)SC(C)C
NUMERIC_READOUT: 8.3
--
COMPOUND: [C-]#[O+].[Cl][Sn]([Cl])[Cl].[Cl][Sn]([Cl])[Cl].[Pt].c1ccncc1
NUMERIC_READOUT: 75.3
--
COMPOUND: C[CH2][Sn]([F])([CH2]C)[CH2]C
NUMERIC_READOUT: 88.6
--
COMPOUND: CCN1C(C)N1P(=S)(OC1CC(C)(C)N(O)C(C)(C)C1)OC1CC(C)(C)N(O)C(C)(C)C1 (configuration not stated)
NUMERIC_READOUT: 32.2
--
COMPOUND: O=C1CC2(CCNCC2)C(=O)N1N1CCOCC1
NUMERIC_READOUT: 5.4
--
COMPOUND: C/C=C/COC(=O)CO[N+](=O)[O-]
NUMERIC_READOUT: -5.3
--
COMPOUND: O=C(Cc1ccccc1)OCc1ccco1
NUMERIC_READOUT: -30
--
COMPOUND: CSCCC(NP(=S)(c1ccccc1)c1ccccc1)C(=O)O (configuration not stated)
NUMERIC_READOUT: 0
--
COMPOUND: CCCC(C)C1C(=O)N(C)C(=O)N(C)C1=O (configuration not stated)
NUMERIC_READOUT: 11.4
--
COMPOUND: CC(=O)C1C=NCCN=CC(C(C)=O)C(C)=NCCCN=C1C.[Ni] (configuration not stated)
NUMERIC_READOUT: 14.4
--
COMPOUND: Cc1cc(NC2=NCCO2)c2c(c1C)CCCC2
NUMERIC_READOUT: -6.9
--
COMPOUND: C=CC(N)=O (tested in a mixture with another compound)
NUMERIC_READOUT: 8.2
--
COMPOUND: CCC1(C(C)C)C(=O)NC(=S)N(C)C1=O (configuration not stated)
NUMERIC_READOUT: 2.9
--
COMPOUND: COC(=O)c1ccc([As]=O)cc1N (configuration not stated)
NUMERIC_READOUT: 99.3
--
COMPOUND: NC(=O)c1ccc([As](=O)(O)O)cc1[N+](=O)[O-]
NUMERIC_READOUT: 5.05
--
COMPOUND: Clc1ccc(Cl)c(Cl)c1
NUMERIC_READOUT: 98.8
--
COMPOUND: O=C=Nc1cccc(S(=O)(=O)F)c1
NUMERIC_READOUT: 26
--
COMPOUND: COc1ccc2nc3cc(Cl)ccc3c(NCCCN(CCCl)CCCl)c2c1
NUMERIC_READOUT: 37.2
--
COMPOUND: CN(C)CCNC(=O)c1cccc(COC(=O)Nc2ccc(N(CCCl)CCCl)cc2)c1[N+](=O)[O-]
NUMERIC_READOUT: 1.2
--
COMPOUND: O=[N+]([O-])c1cccc(/C=C/c2ccc(S(=O)(=O)F)cc2)c1
NUMERIC_READOUT: 96.8
--
COMPOUND: CC(=O)Nc1ccccc1[As](OC(C)=O)c1ccccc1 (configuration not stated)
NUMERIC_READOUT: 99.5
--
COMPOUND: CCOC(=O)c1cc(N(CCCl)CCCl)ccc1OC(=O)CC
NUMERIC_READOUT: 19.7
--
COMPOUND: O=C(Nc1ccccc1)C(Cl)(Cl)Cl
NUMERIC_READOUT: 11.1
--
COMPOUND: [Mg]=[Se]
NUMERIC_READOUT: 14.4
--
COMPOUND: CCOC(=O)C(=O)C1CCNC1=O (configuration not stated)
NUMERIC_READOUT: -4.45
--
COMPOUND: CCCC1NCCOC1(O)c1ccccc1 (configuration not stated)
NUMERIC_READOUT: -1
--
COMPOUND: O=c1oc2cc(O)ccc2c(O)c1C(c1ccccn1)c1c(O)c2ccc(O)cc2oc1=O
NUMERIC_READOUT: -13.7
--
COMPOUND: [Pd].[Pd].[S-]CC[S-].[S-]CC[S-].c1ccc([PH+](c2ccccc2)c2ccccc2)cc1.c1ccc([PH+](c2ccccc2)c2ccccc2)cc1
NUMERIC_READOUT: 8.9
--
COMPOUND: Nc1nc2ncnc(N)c2nc1-c1ccc(N(CCCl)CCCl)cc1
NUMERIC_READOUT: 85.4
--
COMPOUND: NC(Cc1cnc[nH]1)C(=O)NC(Cc1cnc[nH]1)C(=O)O (configuration not stated)
NUMERIC_READOUT: -1.5
--
COMPOUND: CC1(C)C(=O)C=CC2(C)C3CCC4(C)C(O)CCC4(C)C3CCC12 (configuration not stated)
NUMERIC_READOUT: 7.2
--
COMPOUND: Cc1c(Cl)cccc1NC(=O)C(=O)C1C(=O)NC(=O)NC1=O
NUMERIC_READOUT: -13.8
--
COMPOUND: CC(=O)[O-].CC(=O)[O-].O=C([CH-]C(=O)c1ccccc1)c1ccccc1.[Nd+3].[OH3+]
NUMERIC_READOUT: 93
--
COMPOUND: CS[P+]1(C)C=C(N2CCOCC2)CC1 (configuration not stated)
NUMERIC_READOUT: 0.6
--
COMPOUND: O=C(O)CCC(=O)O.[Ni]
NUMERIC_READOUT: -27
--
COMPOUND: CC(=O)NC1=C(N(CCCl)CCCl)C(=O)c2ccccc2C1=O
NUMERIC_READOUT: 98.2
